assay: protein stability index of a GFP-peptide fusion (GPS, HEK-293T) (PSI 1-6); higher = more stable; conditions: treatment: MLN4924 1 uM, 8 h; c terminus: a fixed tail appended;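 also: 24-mer peptide tiles fused after GFP, lentivirally expressed, FACS-sorted into six equal bins by GFP/DsRed ratio, decoded by Illumina sequencing, PSI is the read-weighted mean bin number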
Give measured protein stability index for each item. Keep answers brief.
Give bare numbers.

Sample answers from the record:
- LACGSNRFNKLGLDHLSLGEEPVP [NEK8]: 3.2
- YQLFEELGKGAFSVVRRCVKVLAG [CAMK2A]: 2.64
- SGRRGPPPPPRSRGPPRGLRGGRG [RBMX]: 5.14
- GRNHTPFLGHHSFSVRPGTEATIS [SCNN1D]: 3.78
- EAVARHMLIFSLALEEPEKMGLQE [DNAAF3]: 2.28
- MYEEEINETRRKHETRLVEVDSGR [LMNB1]: 5.06
- NPSQKTGQALLTHLYQSSARRYAG [ELAVL3]: 3.4
- TGVVEFVRKEDMTYAVRKLDNTKF [SRSF1]: 3.26

Here is the next item to consider.
### Prompt Can you look up the measured protein stability index of DTMQNIESTIVELGSIFQQLAHMV [STX5] for me?
### Response 2.52
